Test system: Rattus norvegicus
assay.name: Reduction in mean arterial blood pressure in spontaneously hypertensive rat at 30 mg/kg, ip administered as single dose and measured 30 mins post dose by tail-cuff plethysmography
Type: functional
condition.set: 0.5 h
Record condition met whenever inhibition in vivo at 30 mg/kg is at 30% or higher; record condition not met when lower.

Would you please look over these solved cases?
Cc1ccccc1C[C@@H](C)C1=NCCN1: condition not met
Cc1ccccc1CC(C)C1=NCCN1 (stereo unspecified): condition met
CC(Cc1ccccc1Cl)C1=NCCN1 (stereo unspecified): condition met
CC(Cc1ccccc1-c1ccccc1)C1=NCCN1 (stereo unspecified): condition not met
CC(Cc1ccccc1-c1ccsc1)C1=NCCN1 (stereo unspecified): condition not met

Confirm if inhibition in vivo at 30 mg/kg reported for the compound `Cc1ccccc1C[C@H](C)C1=NCCN1` is 30% or above.
condition met

----------
Consider the following compounds and their measured inhibition in vivo at 30 mg/kg readings.
System: Rattus norvegicus
assay.name: Reduction in mean arterial blood pressure in spontaneously hypertensive rat at 30 mg/kg, ip administered as single dose and measured 60 mins post dose by tail-cuff plethysmography
Format: functional
condition.set: 1 h
# value in %; strip the unit string

Cc1ccccc1CC(C)C1=NCCN1 (stereo unspecified): 29.7
Cc1ccccc1C[C@@H](C)C1=NCCN1: 12.7
CC(Cc1ccccc1Cl)C1=NCCN1 (stereo unspecified): 31.4
CC(Cc1ccccc1-c1ccccc1)C1=NCCN1 (stereo unspecified): 25.4
CC(Cc1ccccc1-c1ccsc1)C1=NCCN1 (stereo unspecified): 35.1

Next:
Entry `Cc1ccccc1C[C@H](C)C1=NCCN1` : reported inhibition in vivo at 30 mg/kg = ?
26

----------
target.desc: Nischarin (Rattus norvegicus, UniProt Q4G017)
Sequence (Q4G017 whole entry): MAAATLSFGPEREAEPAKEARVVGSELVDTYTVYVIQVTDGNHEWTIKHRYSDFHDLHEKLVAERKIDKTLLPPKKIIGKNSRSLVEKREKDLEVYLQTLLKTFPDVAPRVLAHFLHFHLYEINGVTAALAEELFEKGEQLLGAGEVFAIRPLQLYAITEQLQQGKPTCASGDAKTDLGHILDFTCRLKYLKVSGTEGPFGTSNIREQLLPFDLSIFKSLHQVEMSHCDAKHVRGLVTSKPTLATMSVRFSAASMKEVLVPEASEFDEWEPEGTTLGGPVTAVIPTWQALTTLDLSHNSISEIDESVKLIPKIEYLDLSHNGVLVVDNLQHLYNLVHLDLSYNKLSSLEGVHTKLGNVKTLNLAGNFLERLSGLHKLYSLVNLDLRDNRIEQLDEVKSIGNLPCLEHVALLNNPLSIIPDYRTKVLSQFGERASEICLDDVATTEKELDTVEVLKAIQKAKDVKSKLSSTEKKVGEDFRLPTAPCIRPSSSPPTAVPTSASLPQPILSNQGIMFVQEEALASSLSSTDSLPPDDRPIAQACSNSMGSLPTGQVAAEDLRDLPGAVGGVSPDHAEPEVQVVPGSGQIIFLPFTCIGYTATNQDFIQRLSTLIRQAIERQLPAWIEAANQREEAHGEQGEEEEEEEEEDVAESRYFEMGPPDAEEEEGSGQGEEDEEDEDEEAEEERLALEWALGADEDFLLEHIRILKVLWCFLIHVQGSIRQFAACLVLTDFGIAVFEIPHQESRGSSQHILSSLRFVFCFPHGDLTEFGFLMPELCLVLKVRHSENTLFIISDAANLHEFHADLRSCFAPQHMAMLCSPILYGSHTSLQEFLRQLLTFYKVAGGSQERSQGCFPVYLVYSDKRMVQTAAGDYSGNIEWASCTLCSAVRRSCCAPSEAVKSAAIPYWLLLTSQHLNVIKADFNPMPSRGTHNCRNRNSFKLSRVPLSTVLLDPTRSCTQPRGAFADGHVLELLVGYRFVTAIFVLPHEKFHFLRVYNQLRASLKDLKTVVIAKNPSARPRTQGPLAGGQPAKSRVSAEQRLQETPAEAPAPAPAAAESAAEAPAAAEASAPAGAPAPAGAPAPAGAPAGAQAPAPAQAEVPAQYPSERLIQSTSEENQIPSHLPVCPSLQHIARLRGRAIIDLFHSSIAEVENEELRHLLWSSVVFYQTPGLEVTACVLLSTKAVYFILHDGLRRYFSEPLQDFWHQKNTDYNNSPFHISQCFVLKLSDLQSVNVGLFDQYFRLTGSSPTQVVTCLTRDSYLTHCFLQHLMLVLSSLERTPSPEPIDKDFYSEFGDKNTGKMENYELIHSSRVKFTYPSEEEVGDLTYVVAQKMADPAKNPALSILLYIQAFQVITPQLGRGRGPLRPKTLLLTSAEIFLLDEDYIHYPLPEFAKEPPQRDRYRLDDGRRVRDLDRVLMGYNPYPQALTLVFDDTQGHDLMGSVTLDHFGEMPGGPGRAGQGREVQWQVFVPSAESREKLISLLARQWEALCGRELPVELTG
result.type: pKi
Would you please state pKi, meaning minus log10 of the concentration in mol/L, as a bare number?

Consider the following illustrative entries.
CC(Oc1ccccc1-c1ccccc1)C1=NCCN1 (stereo unspecified): 6.90
C[C@@H](Cc1ccccc1-c1ccccc1)C1=NCCN1: 7.01
CC(Cc1ccccc1-c1ccccc1)C1=NCCN1 (stereo unspecified): 6.81

# value lookup — system Nischarin (Rattus norvegicus, UniProt Q4G017), readout pKi, item CC(Oc1ccccc1)C1=NCCN1 (stereo unspecified)
6.51

# value lookup — system Nischarin (Rattus norvegicus, UniProt Q4G017), readout pKi, item `Cc1ccccc1C[C@H](C)C1=NCCN1`
7.88
